B1: TPR t1 (parent)
chain: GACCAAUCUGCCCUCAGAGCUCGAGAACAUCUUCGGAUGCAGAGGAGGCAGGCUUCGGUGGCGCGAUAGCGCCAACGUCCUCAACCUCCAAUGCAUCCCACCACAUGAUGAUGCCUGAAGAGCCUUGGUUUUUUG

# Variants of: B1
# experimentalDetails: polymerase ribozyme fitness, log enrichment relative to wild type (log ratio); higher = more active; in vitro selection for triplet polymerase activity
assayEndpoint: polymerase ribozyme fitness (log ratio)
Write the number on its own, no unit after it.

Reported polymerase ribozyme fitness (log ratio) ( C40U C56G ) = -1.16

Reported polymerase ribozyme fitness (log ratio) ( C3U C53A C72G ) = -1.22

Reported polymerase ribozyme fitness (log ratio) ( A43U A121U ) = 1.26

Reported polymerase ribozyme fitness (log ratio) ( C101U A111C U116G ) = -2.46

Reported polymerase ribozyme fitness (log ratio) ( A41U C53A G58A ) = -1.32

Reported polymerase ribozyme fitness (log ratio) ( G93C G113A C124G ) = -0.942

Reported polymerase ribozyme fitness (log ratio) ( G71A G110C ) = -4.27

Reported polymerase ribozyme fitness (log ratio) ( C40G C86U C101A ) = -2.66

Reported polymerase ribozyme fitness (log ratio) ( A5U U14G U59A C62U ) = -2.15

Reported polymerase ribozyme fitness (log ratio) ( U92G C101U A103U U109A ) = -6.74

Reported polymerase ribozyme fitness (log ratio) ( A29G G63A C88A ) = -2.37

Reported polymerase ribozyme fitness (log ratio) ( C73A G77A ) = -0.332

Reported polymerase ribozyme fitness (log ratio) ( C13A C70G U112A C123U ) = -4
